TESTED_SYSTEM: UniProt:Q9Y5X9
Sequence (Q9Y5X9 21-500): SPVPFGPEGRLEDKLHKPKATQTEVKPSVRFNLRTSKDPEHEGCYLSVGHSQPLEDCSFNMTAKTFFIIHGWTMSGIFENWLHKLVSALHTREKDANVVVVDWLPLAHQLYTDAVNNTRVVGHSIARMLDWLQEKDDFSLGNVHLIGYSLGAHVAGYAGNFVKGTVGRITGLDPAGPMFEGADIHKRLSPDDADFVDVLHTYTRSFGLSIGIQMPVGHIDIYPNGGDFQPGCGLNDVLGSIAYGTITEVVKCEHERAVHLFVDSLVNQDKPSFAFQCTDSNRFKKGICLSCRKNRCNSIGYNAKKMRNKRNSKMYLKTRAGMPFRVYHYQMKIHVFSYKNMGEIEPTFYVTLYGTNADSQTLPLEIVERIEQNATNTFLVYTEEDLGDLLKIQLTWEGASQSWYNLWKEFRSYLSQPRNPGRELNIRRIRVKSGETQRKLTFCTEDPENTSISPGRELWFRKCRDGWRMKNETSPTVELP
ASSAY_OVERVIEW: Endothelial lipase (EL) enzymatic assay with fluorescent substrate A10070 in DMPG vesicles
Format: biochemical
Procedure: Endothelial lipase (EL) and hepatic lipase (HL) activities were measured using a fluorescent substrate, A10070, (Invitrogen, CA) doped into an artificial vesicle containing DMPG (Avanti Polar Lipids) as the excipient. […] The enzymatic assay was measured using 384-well white Optiplates. […] The reaction rates were measured on a Gemini plate reader with an excitation wavelength of 490 nm and an emission wavelength of 530 nm. […]
PROPERTY_LABEL: IC50 (µM)

a. COCCS(=O)(=O)C(C(=O)NCC(=O)NC1CC1)c1nc2ccc(-c3ccc(C(=O)NC(C)(C)COC)cc3)cc2s1 (centres unmarked) [Example 561]
b. COCCNC(=O)c1ccc(-c2ccc3nc(C(C(=O)NCC(=O)NC4CC4)S(=O)(=O)Cc4ccc(F)cc4)sc3c2)cc1 (centres unmarked) [Example 226]
c. Cc1cc(F)ncc1-c1cc2sc(C(C(=O)NCC(=O)NC3CC3)S(C)(=O)=O)nc2cc1F (centres unmarked) [Example 319]
d. COCCS(=O)(=O)C(C(=O)NCC(=O)NC1CC1)c1nc2cc(-c3ccc(NC(C)=O)cc3)ccc2s1 (centres unmarked) [Example 106]
e. COCCS(=O)(=O)C(C(=O)NCC(=O)NC1CC1)c1nc2ccc(-c3ccc(-c4ncco4)cc3)cc2s1 (centres unmarked) [Example 93]
Query: Rank by decreasing IC50 the items listed here. To answer, arrange all of the labels according to the requested order.
Result: b, d, c, a, e

a. COCCS(=O)(=O)C(C(=O)NCC(=O)NC1CC1)c1nc2cc(-c3ccc4[nH]c(=O)ccc4c3)c(F)cc2s1 (centres unmarked) [Example 347]
b. COCCS(=O)(=O)C(C(=O)NCC(=O)NCCOC(C)C)c1nc2cc(-c3ccc(=O)n(C)c3)c(F)cc2s1 (centres unmarked) [Example 355]
c. COCCS(=O)(=O)C(C(=O)NCC(=O)NC1CC1)c1nc2cc(F)c(-c3ccc(-n4ncc(C#N)c4N)cc3)cc2s1 (centres unmarked) [Example 585]
Query: Order the items by recorded IC50; the first position goes to the largest value. To answer, arrange all of the labels according to the requested order.
Result: b, a, c
(b: 0.036 µM, a: 0.018 µM, c: 0.001 µM)

1. O=C(CNC(=O)C(c1nc2cc(-c3ccc(F)nc3)ccc2s1)S(=O)(=O)Cc1ccc(C(F)(F)F)cc1)NC1CC1 (centres unmarked) [Example 17]
2. O=C(CNC(=O)C(c1nc2ccc(-c3cccnc3F)cc2s1)S(=O)(=O)Cc1ccc(F)cc1)NC1CC1 (centres unmarked) [Example 229]
Query: Kindly identify which of 1 and 2 has the larger recorded IC50 value. Indicate your choice by writing its label.
Result: 2
(2: 0.15 µM, 1: 0.046 µM)

A. CC(C)S(=O)(=O)C(C(=O)NCC(=O)NC1CC1)c1nc2cc(-c3ccc(C#N)cc3)c(F)cc2s1 (centres unmarked) [Example 275]
B. COCCS(=O)(=O)C(C(=O)NCC(=O)NC1CC1)c1nc2cc(F)c(-c3ccc4c(c3)OCCN4C(=O)OCc3ccccc3)cc2s1 (centres unmarked) [Example 419]
C. O=C(CNC(=O)C(c1nc2cc(F)c(-c3ccn(Cc4ccccc4)c(=O)c3)cc2s1)S(=O)(=O)CCC(F)(F)F)NC1CC1 (centres unmarked) [Example 136]
Query: Arrange the 3 compounds by rising IC50, starting with the smallest. To answer, arrange all of the labels according to the requested order.
Result: C, B, A
(C: 0.006 µM, B: 0.009 µM, A: 0.04 µM)
